# pKi values compiled below
biological target: hEP4 (Homo sapiens, UniProt P35408); construct: expressed in transfected cells; host or cells: HEK-293 cells (plasma membrane fraction); assay: Radioligand binding, [3H]PGE2, HEK-293 cells stably expressing EP4 receptors; settings: Table 1, second part; read-out: hEP4 Ki
Sequence (P35408 whole entry): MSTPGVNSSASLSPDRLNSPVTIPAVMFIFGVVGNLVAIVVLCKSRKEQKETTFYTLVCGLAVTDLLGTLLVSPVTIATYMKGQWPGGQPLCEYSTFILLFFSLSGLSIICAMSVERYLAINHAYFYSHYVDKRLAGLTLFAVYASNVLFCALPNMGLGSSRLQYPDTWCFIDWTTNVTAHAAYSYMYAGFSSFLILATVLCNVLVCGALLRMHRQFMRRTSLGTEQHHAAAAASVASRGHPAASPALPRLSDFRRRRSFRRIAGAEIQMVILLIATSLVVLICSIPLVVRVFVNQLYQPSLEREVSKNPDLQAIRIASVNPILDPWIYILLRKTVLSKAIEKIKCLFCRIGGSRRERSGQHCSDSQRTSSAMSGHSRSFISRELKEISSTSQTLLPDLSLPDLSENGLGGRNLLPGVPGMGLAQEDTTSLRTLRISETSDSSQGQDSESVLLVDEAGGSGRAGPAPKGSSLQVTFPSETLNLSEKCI
pKi (log units): -log10 of the concentration in mol/L.

O=Cc1cccc(OC[C@@H]2[C@@H](C/C=C\CCCC(=O)O)[C@H](Cl)C[C@H]2O)c1; 4.83

Next item in the queue.
**Q:** Note pKi for the compound shown: O=C(O)CCC/C=C\C[C@@H]1[C@@H](COc2cc(Cl)cc(Cl)c2)[C@H](O)C[C@H]1Cl
**A:** 6.03

###

molecular target: hIP (Homo sapiens, UniProt P43119); assay: FLIPR calcium signal, HEK-293(EBNA) cells; settings: Table 1, second part; quantity not given, values match functional data (EC50) of first part; read-out: Other Receptors hIP
Sequence (P43119 whole entry): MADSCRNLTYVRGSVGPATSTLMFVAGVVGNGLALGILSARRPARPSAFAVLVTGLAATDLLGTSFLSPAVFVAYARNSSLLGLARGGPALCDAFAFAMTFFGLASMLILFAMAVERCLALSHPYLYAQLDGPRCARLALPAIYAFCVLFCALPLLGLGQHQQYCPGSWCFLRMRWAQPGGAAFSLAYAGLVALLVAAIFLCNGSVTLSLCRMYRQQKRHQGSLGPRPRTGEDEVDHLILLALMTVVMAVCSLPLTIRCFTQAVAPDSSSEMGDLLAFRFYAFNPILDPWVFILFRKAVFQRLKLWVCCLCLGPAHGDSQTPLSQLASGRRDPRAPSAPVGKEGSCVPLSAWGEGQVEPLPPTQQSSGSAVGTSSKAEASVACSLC
VALUE_KIND: EC50

**Q:** Note EC50 for the molecule shown: O=Cc1cccc(OC[C@@H]2[C@@H](C/C=C\CCCC(=O)O)[C@H](Cl)C[C@H]2O)c1 [Example 48]
**A:** 2.69 µM

###

molecular target: hEP2/Gqs5 (Homo sapiens, UniProt P43116); construct: expressed in transfected cells; host or cells: HEK-293(EBNA) cells; test: FLIPR calcium signal, HEK-293(EBNA) cells; assay type: cell-based; conditions: Table 1, first part; triplicate; read-out: functional data (EC50) hEP2
Sequence (P43116 whole entry): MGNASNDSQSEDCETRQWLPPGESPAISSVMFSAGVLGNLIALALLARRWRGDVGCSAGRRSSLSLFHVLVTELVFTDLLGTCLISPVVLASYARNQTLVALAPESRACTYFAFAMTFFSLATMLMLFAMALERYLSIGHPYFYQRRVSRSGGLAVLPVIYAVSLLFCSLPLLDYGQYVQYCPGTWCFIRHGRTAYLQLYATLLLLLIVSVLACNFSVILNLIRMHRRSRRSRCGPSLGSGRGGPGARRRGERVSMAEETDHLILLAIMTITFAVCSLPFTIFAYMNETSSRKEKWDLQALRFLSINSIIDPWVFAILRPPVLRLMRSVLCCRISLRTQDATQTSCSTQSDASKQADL
VALUE_KIND: EC50

COC(=O)CCCCCC[C@H]1C(=O)CC[C@@H]1COc1ccccc1; > 10 µM
COC(=O)CCC/C=C\C[C@H]1C(=O)C=C[C@@H]1COc1ccccc1; > 10 µM

Next item in the queue.
**Q:** Note EC50 for the compound shown: O=C(O)CCCCCC[C@@H]1[C@@H](COc2cc(Cl)cc(Cl)c2)[C@H](O)C[C@H]1Cl
**A:** 0.024 µM

###

# EC50 values compiled below
molecular target: hEP3A/Gqi5 (Homo sapiens, UniProt P43115); construct: expressed in transfected cells; host or cells: HEK-293(EBNA) cells; assay: FLIPR calcium signal, HEK-293(EBNA) cells; assay type: cell-based; conditions: Table 1, first part; data represents a single experiment; read-out: functional data (EC50) hEP3A*
Sequence (P43115 whole entry): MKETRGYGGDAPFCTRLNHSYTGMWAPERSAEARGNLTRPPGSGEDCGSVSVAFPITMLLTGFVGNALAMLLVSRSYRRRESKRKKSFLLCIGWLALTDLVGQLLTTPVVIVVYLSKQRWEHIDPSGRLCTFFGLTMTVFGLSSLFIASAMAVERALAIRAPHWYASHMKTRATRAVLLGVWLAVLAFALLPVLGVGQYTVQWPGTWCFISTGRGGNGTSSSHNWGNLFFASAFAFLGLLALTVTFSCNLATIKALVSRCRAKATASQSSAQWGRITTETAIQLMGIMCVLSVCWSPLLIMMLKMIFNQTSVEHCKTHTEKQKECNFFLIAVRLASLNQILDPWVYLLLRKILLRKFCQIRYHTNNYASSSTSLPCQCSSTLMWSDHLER
Write the number in µM without appending the unit.

Would you please look over these solved cases?
O=C(O)CCCCCC[C@@H]1[C@@H](COc2ccccc2)[C@H](O)C[C@H]1Cl; 3.51
O=C(O)CCC/C=C\C[C@@H]1[C@@H](COc2cc(Cl)cc(Cl)c2)[C@H](O)C[C@H]1Cl; 1.26

**Q:** Note EC50 for the molecule shown: O=C(O)CCCCCC[C@H]1C(=O)CC[C@@H]1COc1ccccc1
**A:** 3.55

**Q:** Note EC50 for the molecule shown: O=C(O)CCC/C=C\C[C@@H]1[C@@H](COc2ccccc2)[C@H](O)C[C@H]1Cl
**A:** 7.33

**Q:** Note EC50 for the molecule shown: O=C(O)CCCCCC[C@@H]1[C@@H](COc2cc(Cl)cc(Cl)c2)[C@H](O)C[C@H]1Cl
**A:** 3.49

**Q:** Note EC50 for the molecule shown: COC(=O)CCC/C=C\C[C@@H]1[C@@H](COc2cc(Cl)cc(Cl)c2)[C@H](O)C[C@H]1Cl
**A:** 9.87
